We begin with a simple list: items and their reported Log 1/C.
# Species: Mus musculus
# MEASUREMENT_PROTOCOL: Analgesic activity of compound assayed by the mouse hotplate method was determined as log(1/C); Activity observed in 4-5 out of 10 mice tested
# Assay type: functional
// return just the number, without any unit appended

Task: If you can, please state the reported Log 1/C value of CCc1ccccc1C(=O)OC1CCN(C)CC1 .
Result: 1.15

Task: Next: CCOc1ccccc1C(=O)OC1CCN(C)CC1
Result: 1.18

Further cases:
Task: If you can, please state the reported Log 1/C value of CN1CCC(OC(=O)c2ccccc2-c2ccccc2)CC1 .
Result: 1.52

Task: Next: CN1CCC(OC(=O)c2ccccc2CCc2ccccc2)CC1
Result: 0.86

Task: Next: CN1CCC(OC(=O)c2ccccc2Oc2ccccc2)CC1
Result: 1.24

Task: Next: Cc1ccc(C(=O)OC2CCN(C)CC2)cc1C
Result: 1.15
